- Test system: MS2 coat protein
- assay-explanation: apparent KD of MS2 coat protein; designed switch direction (-1 OFF switch, 1 ON switch): -1; higher = weaker reporter binding
- details: Eterna round: R95; input ligand: microRNA oligo, concentration not stated
Measured apparent KD of MS2 coat protein of individual entries
measurement-kind: apparent KD of MS2 coat protein (nM)

residue-string	measurement-kind	unit-spec	experimental-result
AAUAACAGAGGAUAUACUAUUUUAUGUAUUUAUUAUUUUGAACAUGAGGAUCACCCAUGUAGAAGGCUGAAUAA [JMF 20] (puzzle: Exclusion 2)	apparent KD of MS2 coat protein	nM	19.9
AUAAAGUCAGGAUAUCGAAGUGAGUGGUGGAGGGUAAGGUACGAGAAGGGACAUGAGGAUCACCCAUGUAGGAA [JR_Exclusion4)Sub005] (puzzle: Exclusion 4)	apparent KD of MS2 coat protein	nM	27.2
GAUUAUGCGAGCUUUAGGGACAUGAGGAUCACCCAUGUUCGUCUUAUUGGUCUAGAUACACUGACAUACCUAAAUCU [JMF 58] (puzzle: Sensor v3, turn-off variant 1)	apparent KD of MS2 coat protein	nM	19.1
UAAUAACAAGCGAGAUCCUACAUGAGGAUCACCCAUGUGCUCGUCUUAUAAAGUACUAUCACGAAAGUGAUAGUACA [Mat - Sensor v3 - turn-off var 1 - Eli Mod - D61] (puzzle: Sensor v3, turn-off variant 1)	apparent KD of MS2 coat protein	nM	49.5
GAGAAGGUAGGAUAUACGAAGAAAGAGGGUAGGAAGAAUACACAUGAGGAUCACCCAUGUAGAAGGACCAAGAG [Mat - Exclusion 2 - Mod of my Tesla design - D47] (puzzle: Exclusion 2)	apparent KD of MS2 coat protein	nM	17.8
GAUUGACAUGAGGAUCACCCAUGUGAGGAUAUCGGCCGGACCGUGCUGGCUUCCGUCGCGAGAAGGCGCAUAGG [Exclusion 1 V41] (puzzle: Exclusion 1)	apparent KD of MS2 coat protein	nM	35.5
UCUAGACAUGAGGAUCACCCAUGUGAGGAUAUGAUGCGAUCGUCGAAAGACGAUAGCAUCAGAAGGCACAUAUG [Fiskers Ex 1 - 4] (puzzle: Exclusion 1)	apparent KD of MS2 coat protein	nM	117
UUUUUCAGGCCAGAUCCUCACAUGAGGAUCACCCAUGUGCUCGUCUGUUUUCGCUCUAGCUUUUUUUUGGUAGUGCU [Level Boss var2-16] (puzzle: Sensor v3, turn-off variant 1)	apparent KD of MS2 coat protein	nM	31.8
CUCCUCGUGGCGCCUAAACACAUGAGGAUCACCCAUGUACAGGCUUUUUGCCGUCUUACAAUAAAACCGAGGAUACG [Inveon] (puzzle: Sensor v3, turn-off variant 1)	apparent KD of MS2 coat protein	nM	50.8
UAUUAGCUAGGAUAUACAUGAGGAUCACCCAUGUCACGGGUCCACUCAUCCUAUGCGUGUAGAAGGAGCGACCC [JL Ceriza mod 1] (puzzle: Exclusion 3)	apparent KD of MS2 coat protein	nM	23.6

----------
- Tested on: MS2 coat protein
- assay-explanation: apparent KD of MS2 coat protein; designed switch direction (-1 OFF switch, 1 ON switch): -1; higher = weaker reporter binding
- details: input ligand: none

residue-string	apparent KD of MS2 coat protein [nM]
AGCGCUUACGUAGGAUAUGCAUGAGGAUCACCCAUGCAACCACAUUUAACAUGAGGAUCACCCAUGUAGAAGGACGGGUGCGCA [pwkr exNG2 2xF5 1xFMN.2] (Eterna round: R96, puzzle: Exclusion NG 2)	27.9
GAUUAACAUGAGGAUCACCCAUGUGAGGAUAUGGACUUGCCCACUUACCCUUUAGAGUCUAGAAGGCGCAUCUC [1986#30] (Eterna round: R97, puzzle: Exclusion 1)	20.8
GAAGAAAACCAAGGAUAUCGGAAAGGAAGUGUACGAGAAGGUGGACAUGGACAUGAGGAUCACCCAUGUGGCCCGAUGCCGUGG [PowerStrip EXNG 1.5] (Eterna round: R96, puzzle: Exclusion NG 1)	38.1
AAUACAAGCUAUUGAUCCCACAUGAGGAUCACCCAUGUAGAUGGCGGUGACACCUCCAUUACGAUAGCUCGUCUUAU [Sensor-V1 #57] (Eterna round: R97, puzzle: Sensor, turn-off variant 1)	347
GAAAAGGUAGAGGAUAUUUCAGAUCAAAGCUGCAAAGAAGGCUGCACAUGAGGAUCACCCAUGUGGUCAACAAA [Mod of Quesina 13 - Jieux - Exclusion 6] (Eterna round: R97, puzzle: Exclusion 6)	21.1
CUAGCGAGUGUAGGAUAUCGGACUGUUUCAGUCUGAGAAGGACAUGAGGAUCACCCAUGUGUAGCUACGUGAGUAGCACGCUAG [JL ENG1 3.88] (Eterna round: R96, puzzle: Exclusion NG 1)	22.3
GGUAGGUGUGACUUGGGUGACAUGAGGAUCACCCAUGUCACAAGCUUGUUGCUCGCCUUGUAGUUAACCCAUGUCAC [LRO Sensor-off var1-30 mod of Stov1-13-A1 by Brourd] (Eterna round: R97, puzzle: Sensor, turn-off variant 1)	34.5
ACAUGUGUUGUAGGAUAUAGGAUACAUGAGGAUCACCCAUGUGGAUUCAUGUCAAAGGAAACGUCCUAGAAGGACGACAACAUG [Ex NG2 #23] (Eterna round: R96, puzzle: Exclusion NG 2)	84.3
CGAUGCACGAGUCCACAUGAGGAUCACCCAUGUCGUGUUAGCGAGGAUAUCGGAGACACAUAGUAUGAGAAGGCGCGAACCUGA [Ex NG3 #21] (Eterna round: R96, puzzle: Exclusion NG 3)	13.4
